This collection of values is drawn from ChEMBL document CHEMBL6074628.

study_system: Cytochrome P450 2B6 (Homo sapiens)
Sequence (P20813 whole entry): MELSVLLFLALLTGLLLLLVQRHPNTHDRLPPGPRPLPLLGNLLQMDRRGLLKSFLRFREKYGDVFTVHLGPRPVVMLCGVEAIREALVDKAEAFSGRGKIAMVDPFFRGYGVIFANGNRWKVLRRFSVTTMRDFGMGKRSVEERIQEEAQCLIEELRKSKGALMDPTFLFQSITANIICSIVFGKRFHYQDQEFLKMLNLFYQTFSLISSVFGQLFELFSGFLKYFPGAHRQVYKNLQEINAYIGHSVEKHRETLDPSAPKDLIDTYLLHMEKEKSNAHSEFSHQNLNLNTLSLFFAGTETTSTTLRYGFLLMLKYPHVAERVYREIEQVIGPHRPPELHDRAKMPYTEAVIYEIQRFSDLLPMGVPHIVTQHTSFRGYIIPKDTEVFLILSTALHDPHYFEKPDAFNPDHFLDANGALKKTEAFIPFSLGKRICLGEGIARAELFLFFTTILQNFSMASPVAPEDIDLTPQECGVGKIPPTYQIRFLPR

{"chemical_string": "COc1ccccc1CCP(=O)(O)[C@@H](N)CCC(=O)O", "IC50": "> 25 µM"}

====

experiment_notes: in vivo
applied_conditions: Sprague-Dawley, rat, iv, 2 mg/kg
Description: Renal clearance in Sprague-Dawley rat at 2 mg/kg, iv

{"chemical_string": "COc1ccccc1CCP(=O)(O)[C@@H](N)CCC(=O)O", "CL renal": "0.6 mL/min"}

====

As shown below, each of these compounds has a reported IC50 value.
study_system: Glutamyl aminopeptidase (Mus musculus, UniProt P16406)
Sequence (P16406 whole entry): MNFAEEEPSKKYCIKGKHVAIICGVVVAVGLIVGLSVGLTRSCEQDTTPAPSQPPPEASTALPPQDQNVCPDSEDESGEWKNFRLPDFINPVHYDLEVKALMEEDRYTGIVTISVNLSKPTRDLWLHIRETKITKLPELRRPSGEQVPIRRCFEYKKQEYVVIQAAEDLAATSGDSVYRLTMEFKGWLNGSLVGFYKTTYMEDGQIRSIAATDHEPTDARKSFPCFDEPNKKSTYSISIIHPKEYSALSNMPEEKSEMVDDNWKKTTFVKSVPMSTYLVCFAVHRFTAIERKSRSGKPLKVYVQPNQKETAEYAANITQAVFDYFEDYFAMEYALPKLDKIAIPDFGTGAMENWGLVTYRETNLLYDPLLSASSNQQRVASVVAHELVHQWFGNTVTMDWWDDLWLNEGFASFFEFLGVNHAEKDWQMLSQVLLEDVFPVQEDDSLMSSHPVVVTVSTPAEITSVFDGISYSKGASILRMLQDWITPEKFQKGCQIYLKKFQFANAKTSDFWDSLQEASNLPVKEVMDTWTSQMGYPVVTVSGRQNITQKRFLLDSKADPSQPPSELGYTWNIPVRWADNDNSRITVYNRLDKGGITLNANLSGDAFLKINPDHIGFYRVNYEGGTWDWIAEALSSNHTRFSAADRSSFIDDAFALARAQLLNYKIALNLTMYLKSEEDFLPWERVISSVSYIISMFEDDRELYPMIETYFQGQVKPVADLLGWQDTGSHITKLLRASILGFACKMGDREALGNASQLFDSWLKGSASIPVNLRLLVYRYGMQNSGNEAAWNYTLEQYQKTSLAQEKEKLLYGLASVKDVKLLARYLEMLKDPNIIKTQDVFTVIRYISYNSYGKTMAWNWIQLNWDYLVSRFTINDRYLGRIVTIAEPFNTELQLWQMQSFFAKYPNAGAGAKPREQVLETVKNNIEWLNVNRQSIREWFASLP
experiment_notes: Inhibition of recombinant mouse aminopeptidase A activity
endpoint: IC50

{"compound": "NC(CCC(=O)O)P(=O)(O)CCc1ccccc1Cl (stereo not given)", "endpoint": "IC50", "recorded_measurement": "21 nM"}
{"compound": "NC(CCC(=O)O)P(=O)(O)CCc1cccc(Cl)c1 (stereo not given)", "endpoint": "IC50", "recorded_measurement": "61 nM"}
{"compound": "NC(CCC(=O)O)P(=O)(O)CCc1cccc(Cl)c1Cl (stereo not given)", "endpoint": "IC50", "recorded_measurement": "26 nM"}
{"compound": "COc1ccccc1CCP(=O)(O)[C@@H](N)CCC(=O)O", "endpoint": "IC50", "recorded_measurement": "4 nM"}
{"compound": "NC(CCC(=O)O)P(=O)(O)CCc1ccccc1OC1CCCC1 (stereo not given)", "endpoint": "IC50", "recorded_measurement": "9 nM"}

====

experiment_notes: Drug concentration in Sprague-Dawley rat cerebrospinal fluid at 2 mg/kg, iv measured after 5 mins
endpoint: concentration at 5 min (ng/mL)

{"chemical_string": "COc1ccccc1CCP(=O)(O)[C@@H](N)CCC(=O)O", "endpoint": "concentration at 5 min", "units": "ng/mL", "recorded_measurement": 281}

====

experiment_notes: Solubility of compound in phosphate buffer at pH 7.4

{"chemical_string": "COc1ccccc1CCP(=O)(O)[C@@H](N)CCC(=O)O", "units": "µM", "solubility": 165}

====

experiment_notes: Stability in human hepatocyte assessed as parent compound remaining measured after 1 hrs
applied_conditions: hepatocytes

{"chemical_string": "COc1ccccc1CCP(=O)(O)[C@@H](N)CCC(=O)O", "units": "%", "remaining at 1 h": 99}

====

As shown below, each of these molecules has a reported pIC50 value.
study_system: UniProtKB P16406
Sequence (P16406 whole entry): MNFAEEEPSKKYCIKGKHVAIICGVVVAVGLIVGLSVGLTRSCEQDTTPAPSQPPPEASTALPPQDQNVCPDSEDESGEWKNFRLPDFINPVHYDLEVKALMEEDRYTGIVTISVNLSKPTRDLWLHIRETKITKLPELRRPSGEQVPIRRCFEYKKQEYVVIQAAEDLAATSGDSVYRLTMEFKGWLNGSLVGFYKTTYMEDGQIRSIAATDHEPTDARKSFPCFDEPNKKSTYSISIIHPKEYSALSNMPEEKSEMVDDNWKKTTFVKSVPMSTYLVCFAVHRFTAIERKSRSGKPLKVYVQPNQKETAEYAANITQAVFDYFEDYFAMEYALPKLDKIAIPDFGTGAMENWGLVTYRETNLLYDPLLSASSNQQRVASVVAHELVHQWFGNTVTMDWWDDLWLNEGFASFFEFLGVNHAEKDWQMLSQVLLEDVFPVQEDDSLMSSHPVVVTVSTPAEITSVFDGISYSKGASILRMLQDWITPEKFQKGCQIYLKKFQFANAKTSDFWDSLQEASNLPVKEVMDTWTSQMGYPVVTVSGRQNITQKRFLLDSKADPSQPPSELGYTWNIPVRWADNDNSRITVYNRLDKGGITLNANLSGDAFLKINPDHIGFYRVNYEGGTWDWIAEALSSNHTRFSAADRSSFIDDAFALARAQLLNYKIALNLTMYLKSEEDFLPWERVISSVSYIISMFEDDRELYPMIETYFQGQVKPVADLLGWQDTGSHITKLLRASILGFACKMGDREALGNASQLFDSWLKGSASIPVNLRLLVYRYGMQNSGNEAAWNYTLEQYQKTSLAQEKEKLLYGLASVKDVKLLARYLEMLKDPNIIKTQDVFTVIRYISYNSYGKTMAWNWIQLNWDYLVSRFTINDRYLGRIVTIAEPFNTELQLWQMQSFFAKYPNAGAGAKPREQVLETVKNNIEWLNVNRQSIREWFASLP
experiment_notes: Inhibition of recombinant mouse aminopeptidase A activity
pIC50: −log10 of the molar value.

{"molecule": "COc1cccc(CCP(=O)(O)C(N)CCC(=O)O)c1 (configuration not stated)", "pIC50": 7.55}
{"molecule": "NC(CCCC(=O)O)P(=O)(O)CCc1ccccc1 (racemic)", "pIC50": 6.03}
{"molecule": "COc1ccc(CCP(=O)(O)C(N)CCC(=O)O)cc1 (configuration not stated)", "pIC50": 7.62}
{"molecule": "N[C@@H](CCC(=O)O)P(=O)(O)CCc1ccccc1", "pIC50": 8.00}
{"molecule": "N[C@H](CCC(=O)O)P(=O)(O)CCc1ccccc1", "pIC50": 6.18}
{"molecule": "NC(CCC(=O)O)P(=O)(O)CCc1ccccc1OC1CCCCC1 (configuration not stated)", "pIC50": 9.00}
{"molecule": "NC(CCC(=O)O)P(=O)(O)CCc1ccccc1-c1ccccc1 (configuration not stated)", "pIC50": 7.38}
{"molecule": "NC(CCC(=O)O)P(=O)(O)CCCc1ccccc1 (racemic)", "pIC50": 7.27}
{"molecule": "Cc1ccccc1CCP(=O)(O)C(N)CCC(=O)O (configuration not stated)", "pIC50": 7.74}
{"molecule": "Cc1ccc(CCP(=O)(O)C(N)CCC(=O)O)cc1 (configuration not stated)", "pIC50": 7.64}
{"molecule": "NC(CCC(=O)O)P(=O)(O)CCc1ccccc1 (racemic)", "pIC50": 7.54}
{"molecule": "NC(CCC(=O)O)P(=O)(O)Cc1ccccc1 (racemic)", "pIC50": 7.41}
